# measured-on: T1, Hook3_(1–160) (human)
# T1 chain: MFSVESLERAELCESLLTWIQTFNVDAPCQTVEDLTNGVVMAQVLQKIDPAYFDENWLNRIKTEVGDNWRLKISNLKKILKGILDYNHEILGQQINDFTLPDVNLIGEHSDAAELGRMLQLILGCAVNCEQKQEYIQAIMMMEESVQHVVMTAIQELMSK
# protocol-description: ITC

{"binder": "NMKAGATSEGVLANFFNSLLSKKTGS [LIC1_(433–458)]", "unit-string": "µM", "Kd": 6.3}
